Taken from PubChem BioAssay (NCI).

test system: ACHN renal; assay: NCI tumour cell line growth inhibition, 48 h

Compound	Test system	TGI
COc1cc(C2C3=C(COC3=O)Oc3cc4c(cc32)OCO4)cc(OC)c1OC(C)=O (stereo not given)	ACHN renal	> 57.2 µM
Cc1ccc(C2=Nc3ccccc3SC(c3cccc([N+](=O)[O-])c3)C2)cc1 (stereo not given)	ACHN renal	> 100 µM
Cn1c2ccccc2n2c(=O)c3c(c(C#N)c12)CCCC3	ACHN renal	> 100 µM
COc1ccc(-c2cc(=O)c3c(OC)c(OC)c(OC)c(OC)c3o2)cc1	ACHN renal	> 100 µM
O=[As](O)(O)c1ccc(N=Nc2ccc(O)cc2)cc1	ACHN renal	> 100 µM

---

system: SN12C renal; assay: NCI tumour cell line growth inhibition, 48 h

Compound	GI50
CC1OC(O[C@H]2/C=C/C=C/C=C/C=C/C=C/C=C/C=C/[C@H](C)[C@@H](O)[C@@H](C)[C@H](C)OC(=O)CC(O)CC(O)CCC(O)C(O)CC(O)C[C@]3(O)C[C@H](O)C(C(=O)O)C(C2)O3)C(O)[C@H](N)C1O (some centres undefined)	1580 nM
Cn1cc(-c2nonc2-c2cn(C)c3ccccc23)c2ccccc21	1760 nM
CCN1C(=O)N(CC)C2C1NN=c1s/c(=C3\C(=O)N(CCc4ccccc4)c4ccccc43)c(=O)n12 (centres undefined)	1340 nM
O=C(Nc1cccc(Nc2ncc(Br)c(NCCc3cnc[nH]3)n2)c1)N1CCCC1	2880 nM

---

tested on: IGROV1 ovarian; test: NCI tumour cell line growth inhibition, 48 h
TGI values for the molecules below.
Measured parameter: TGI

Molecule	Test system	Measured parameter	Result value
Fc1ccccc1C1SCc2nc3cc4ccccc4cc3n21 (stereo unspecified)	IGROV1 ovarian	TGI	> 100 µM
CSCCC(NC(=O)Cc1ccc(C(=O)c2ccccc2)cc1)C(=O)O (stereo unspecified)	IGROV1 ovarian	TGI	> 100 µM
C[CH2][Pb]([CH2]C)([CH2]C)[O]C(=O)c1ccc2ccccc2n1	IGROV1 ovarian	TGI	> 10 µM
CCC[C@H](C)C[C@H](C)C[C@H](C)/C=C(\C)[C@@H](O)[C@@H](C)C(=O)CC	IGROV1 ovarian	TGI	36.2 µM
COc1ccc(-n2cnc3c(NC(CCSC)C(=O)O)ncnc32)cc1 (stereo unspecified)	IGROV1 ovarian	TGI	> 100 µM
O=C1NC(=S)N(c2ccccc2)C1=O	IGROV1 ovarian	TGI	> 100 µM
C=CCOC(=O)C1C2OC3(C(C(=O)OC)=C2C(=O)OC)c2ccccc2CCC13 (stereo unspecified)	IGROV1 ovarian	TGI	> 10 µM
COC(=O)c1nc(-c2ccccc2)oc1S(=O)(=O)n1nc(C)cc1N	IGROV1 ovarian	TGI	36.5 µM
CN(C)CC1CCCC1=O (stereo unspecified)	IGROV1 ovarian	TGI	21.5 µM
COc1cc([C@@H]2c3cc(O)c(OC)cc3C=C(C(N)=O)[C@H]2C(N)=O)ccc1O	IGROV1 ovarian	TGI	> 100 µM
O=C(CC(=O)Nc1ccccc1)N/N=C/c1cc(N=Nc2ccc(Br)cc2)ccc1O	IGROV1 ovarian	TGI	> 10 µM
CC1(O)OC(=O)C2=C1CCC1C2CCC2(C)C(O)CCC12 (stereo unspecified)	IGROV1 ovarian	TGI	> 100 µM
Nc1ccc(-c2nc3ccccc3[nH]2)c2ccccc12	IGROV1 ovarian	TGI	42.6 µM
CC(C)C1=CC23CCC4C(C)(C(=O)O)CCCC4(C)C2CC1C1C(=O)N(c2ccc(C(=O)O)cc2)C(=O)C13 (stereo unspecified)	IGROV1 ovarian	TGI	> 100 µM
COc1cc(C(c2ccc3c(c2)OCO3)N2C(=O)CCC2C(=O)O)cc(OC)c1OC (stereo unspecified)	IGROV1 ovarian	TGI	> 100 µM
O=C(CSC1=NCCN1)Nc1ccccc1	IGROV1 ovarian	TGI	> 100 µM
CNS(=O)(=O)NNS(=O)(=O)c1ccc(Cl)cc1	IGROV1 ovarian	TGI	> 100 µM
COc1cccc(NC(=O)C(C#N)=C(SC)SC)c1	IGROV1 ovarian	TGI	> 100 µM
CCOc1ccc(-n2nnc3c(N)nc(N)nc32)cc1	IGROV1 ovarian	TGI	> 100 µM
COc1cc2c(cc1OC)C1(c3ccc(Cl)cc3)ON=C(c3ccccc3)N1CS2 (stereo unspecified)	IGROV1 ovarian	TGI	> 100 µM
Cc1cc(N(CCC#N)CCC#N)ccc1/C=C1N=C(/C=C\c2ccccc2)N(c2ccc(Cl)cc2)C\1=O	IGROV1 ovarian	TGI	> 100 µM
CN(C)CCCN1c2ccccc2CCc2ccc([N+](=O)[O-])cc21	IGROV1 ovarian	TGI	31 µM
CCN(Cc1ccc(Cl)s1)c1ccc(CO)c(Cl)c1	IGROV1 ovarian	TGI	0.337 µM
C#CCOCC12C=CC(O1)C1C(=O)OCC12 (stereo unspecified)	IGROV1 ovarian	TGI	> 100 µM
O=C(Oc1cccnc1)c1ccsc1Nc1ccnc(C(F)(F)F)c1	IGROV1 ovarian	TGI	> 100 µM
COc1ccc(OC)c(C2SCC(=O)N2NC(=O)C(O)c2ccccc2)c1 (stereo unspecified)	IGROV1 ovarian	TGI	> 100 µM
c1ccc2c3c([nH]c2c1)C1CCCN1CC3 (stereo unspecified)	IGROV1 ovarian	TGI	> 10 µM
COc1cc(/C=C(/C#N)C(N)=O)ccc1O	IGROV1 ovarian	TGI	> 100 µM
C[C@@H]1O[C@@H](O[C@H]2CC[C@@]3(C)[C@H](CCC4[C@@H]3C(O)C[C@]3(C)[C@@H](c5ccc(=O)oc5)CC[C@]43O)C2)[C@H](O)[C@H](O)[C@H]1O (stereo partly specified)	IGROV1 ovarian	TGI	0.0237 µM
Cc1cc(N(CCC#N)CCC#N)ccc1/C=C1/N=C(c2ccccc2)N(N)C1=O	IGROV1 ovarian	TGI	> 100 µM
CNc1ccc(N)cc1C(=O)N1CCC[C@H]1CO	IGROV1 ovarian	TGI	> 100 µM
Fc1cccc(C2SCc3nc4ccccc4n32)c1F (stereo unspecified)	IGROV1 ovarian	TGI	> 100 µM
CCNC1=C(NC(=O)CC)C(=O)c2ccccc2C1=O	IGROV1 ovarian	TGI	> 100 µM
N#Cc1ccc(N=Cc2c([O-])ccc3ccccc23)cc1.[C-]#[O+].[C-]#[O+].[Ir]	IGROV1 ovarian	TGI	27.9 µM
O=P1(Oc2ccccc2)C(c2ccccc2)C(c2ccccc2)=NN1c1ccccc1 (stereo unspecified)	IGROV1 ovarian	TGI	69.9 µM
Cn1cncc1CC1COC(=O)C1C(O)c1ccccc1 (stereo unspecified)	IGROV1 ovarian	TGI	> 100 µM
O=C(NC1CCCC1=O)c1ccccc1 (stereo unspecified)	IGROV1 ovarian	TGI	> 100 µM
CN(C)c1ccc(N=Nc2ccncc2)cc1	IGROV1 ovarian	TGI	> 100 µM
COC(=O)C1=C(C)N2[C@H](C(=O)O)CO[C@@]2(C)[C@H](C(=O)OC)[C@H]1c1cccc([N+](=O)[O-])c1	IGROV1 ovarian	TGI	> 100 µM
CC(C)CN=C(N)N=C(N)N	IGROV1 ovarian	TGI	> 100 µM
Cc1cc2c(c(C(=O)O)c1C)-c1cccc(F)c1C2=O	IGROV1 ovarian	TGI	> 100 µM
